So I've got a bunch of molecules here, and I need their logP values.

Past entries and their recorded results:
| Molecule | logP |
| --- | --- |
| Nc1ccc(C(=O)O)c(N)c1 | -0.31 |
| Cc1nn(-c2ccccc2)c(Nc2ccc([N+](=O)[O-])cc2)c1[N+](=O)[O-] | 2.78 |
| Cc1ccc(Cn2cc(F)c(=O)[nH]c2=O)cc1 | 1.5 |
| CCn1cc(C(=O)O)c(=O)c2cc3c(cc21)OCO3 | 0.94 |
| N#Cc1ccccc1OCC(O)CNCCNC(=O)Cc1ccc(O)cc1 (configuration not stated) | 0.92 |
| CCN(CC)c1cccc(S(=O)(=O)[O-])c1.[Na+] | -1.6 |
| CC(C)(C)C(COc1ccccc1)OC(=O)n1ccnc1 (configuration not stated) | 3.58 |
| O=c1ccnc2n1CCCC2 | -0.14 |

// for each molecule in input: emit logP
1. CC1NC(=O)NC1=O (configuration not stated)
2. Cc1nn(-c2ccccc2)c(Nc2ccccc2)c1[N+](=O)[O-]
3. COC(=O)n1cc(CC(NC(=O)CC2NC(=O)C3C4CCC(CC4)N3C2=O)C(=O)NC(Cc2ccccc2)C(=O)N(C)Cc2ccccc2)c2ccccc21 (configuration not stated)
4. O=c1[nH]c2cc(Cl)ccc2n1C1CCN(CCCC(c2ccc(F)cc2)c2ccc(F)cc2)CC1
5. CCCCC(=O)CC(=O)CCCC
6. Nc1c(Cl)cccc1Cl
7. c1ccc(C2(N3CCCCC3)CCCCC2)cc1
8. CN(C)CC/C=C1\c2ccccc2COc2ccccc21

1: -0.91; 2: 2.98; 3: 4.05; 4: 7.1; 5: 3.56; 6: 2.76; 7: 4.69; 8: 4.29

Batch lookup, logP per entry.
1. CNC(=O)Oc1cc(C)ccc1C(C)C
2. O=C(O)CCc1ccc(OCc2ccccc2)cc1
3. CCOC(=O)c1cc(=O)[nH]c(=O)[nH]1

[2.84, 3.31, 0.68]

Please state logP for every molecule in the list that follows.
1. Cc1ccc(Nc2c([N+](=O)[O-])c(C)nn2-c2ccccc2)cc1
2. CCCc1ccc(OCC(OC(=S)n2ccnc2)C(C)(C)C)cc1 (configuration not stated)
3. NC(=S)NNCc1ccc2c(c1)OCO2
4. CCOC(=O)OCn1c(=O)[nH]cc(F)c1=O
5. COCCn1ccc(=O)c(O)c1C

[3.43, 5.77, 0.14, 0.15, -0.41]

Value sought for every listed molecule: logP.
1. CNC(=O)NCCCn1nc(-c2ccccc2)ccc1=O
2. CC(=O)OC(CNC(C)C)COc1cccc2ccccc12 (configuration not stated)
3. Nc1ncn(C2OC(CO)C(O)C2O)c(=O)n1 (configuration not stated)
4. CCOC(=O)c1cnc2n(c1=O)CCCC2
5. Cc1c(C(C)C)c(=O)n(-c2ccccc2)n1C
6. CC(=O)NC(CC(N)=O)C(N)=O (configuration not stated)

1: 1.16; 2: 4.34; 3: -2.17; 4: 0.15; 5: 1.94; 6: -2.41

====

Exercise: state measured logP for each of the compounds provided.
One number for each entry.

| Compound | logP |
| --- | --- |
| NC(=O)NCCCCn1nc(-c2ccccc2)ccc1=O | 1.21 |
| Cn1cnc([N+](=O)[O-])c1Cl | 1.06 |

Lab note: each compound below needs its logP filled in.
1. CC(C)(C)c1ccc(C2CCCC(O)C2)c(O)c1 (configuration not stated)
2. N=C(N)NN=Cc1ccc(Cl)c([N+](=O)[O-])c1
3. COC(=O)c1cnc2n(c1=O)C(C)CCC2 (configuration not stated)

1: 4.05; 2: 0.53; 3: 0.16

Hey, can you go through the list below and give me logP for every item?
1. CCc1ncc([N+](=O)[O-])n1CCNC(=S)OC
2. CNC12CCCCC1CCc1ccc(OC)cc12 (configuration not stated)

[1.46, 3.75]
